Where do these numbers come from? They come from PubChem BioAssay.

# RUN_DESCRIPTION: hit retest on RPL19A-GFP reporter strain – cell-based, S. cerevisiae, flow cytometry, cherry picks, mother/daughter gates, confirmation (AID 2270)
# CONDITION: 3 h, measured here: daughter cell gate, at 10 µM, stronger effect = lower value, 100 = same GFP as DMSO wells
RECORDED_ENDPOINT: GFP response vs DMSO

INSERT INTO results (molecule, recorded_endpoint, result) VALUES
  ('N=c1c(C(=O)NCc2ccco2)cc2c(=O)n3ccccc3nc2n1CCc1ccccc1', 'GFP response vs DMSO', '96.4%'),
  ('N=c1nc(N2CCCCC2)cc(N)n1O', 'GFP response vs DMSO', '97.4%'),
  ('N#C/C(C(N)=O)=c1/ccc2c(c1)N1C3=C(CCCC3)CC3CCCCC31N=2 (stereo not drawn)', 'GFP response vs DMSO', '88.8%');
